tested_on: F508del (Homo sapiens, UniProt P13569, DEL508-508)
Construct: expressed in transfected cells
Sequence (P13569 with tags, fused parts or gaps DEL508-508): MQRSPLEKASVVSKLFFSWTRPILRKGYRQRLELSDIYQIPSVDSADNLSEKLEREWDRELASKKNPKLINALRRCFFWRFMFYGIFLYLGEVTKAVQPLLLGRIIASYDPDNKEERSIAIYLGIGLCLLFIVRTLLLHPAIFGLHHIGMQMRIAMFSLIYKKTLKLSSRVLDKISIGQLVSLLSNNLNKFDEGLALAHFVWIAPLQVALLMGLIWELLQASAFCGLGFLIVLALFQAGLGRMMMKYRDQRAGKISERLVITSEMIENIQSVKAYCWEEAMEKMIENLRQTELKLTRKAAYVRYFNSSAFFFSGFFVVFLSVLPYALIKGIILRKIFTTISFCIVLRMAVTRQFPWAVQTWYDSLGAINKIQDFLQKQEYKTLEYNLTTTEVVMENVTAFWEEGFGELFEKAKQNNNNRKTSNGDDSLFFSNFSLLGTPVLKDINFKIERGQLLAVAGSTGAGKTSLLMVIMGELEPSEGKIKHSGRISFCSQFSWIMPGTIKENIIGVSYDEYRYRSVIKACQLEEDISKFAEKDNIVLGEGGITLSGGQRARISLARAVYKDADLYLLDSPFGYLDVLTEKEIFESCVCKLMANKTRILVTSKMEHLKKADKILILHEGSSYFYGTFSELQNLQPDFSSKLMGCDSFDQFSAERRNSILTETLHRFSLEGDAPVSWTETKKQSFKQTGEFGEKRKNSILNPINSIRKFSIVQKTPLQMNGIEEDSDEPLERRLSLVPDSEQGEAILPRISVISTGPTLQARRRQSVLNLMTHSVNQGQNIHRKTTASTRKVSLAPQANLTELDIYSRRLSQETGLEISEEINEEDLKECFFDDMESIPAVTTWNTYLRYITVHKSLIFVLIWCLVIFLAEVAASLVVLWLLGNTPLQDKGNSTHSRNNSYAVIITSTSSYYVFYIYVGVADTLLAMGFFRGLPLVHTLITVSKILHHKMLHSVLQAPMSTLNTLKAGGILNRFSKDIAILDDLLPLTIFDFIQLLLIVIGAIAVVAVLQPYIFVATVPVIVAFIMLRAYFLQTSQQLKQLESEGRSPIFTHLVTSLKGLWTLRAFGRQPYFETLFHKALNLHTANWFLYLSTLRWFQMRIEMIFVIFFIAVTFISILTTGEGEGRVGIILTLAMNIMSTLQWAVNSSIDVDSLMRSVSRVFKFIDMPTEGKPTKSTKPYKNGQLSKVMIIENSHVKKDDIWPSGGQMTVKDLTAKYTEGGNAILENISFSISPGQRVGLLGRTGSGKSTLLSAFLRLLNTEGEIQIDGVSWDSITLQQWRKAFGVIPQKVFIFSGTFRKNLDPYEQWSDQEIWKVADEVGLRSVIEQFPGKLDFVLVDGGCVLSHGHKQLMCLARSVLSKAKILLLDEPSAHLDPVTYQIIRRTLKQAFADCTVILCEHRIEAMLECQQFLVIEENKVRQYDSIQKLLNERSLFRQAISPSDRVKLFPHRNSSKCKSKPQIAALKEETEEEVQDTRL
experiment_description: Protocol 1: membrane potential optical assay (FLIPR III, voltage sensing dye), identification of potentiator compounds
Assay type: cell-based
settings: Table 3, compounds of Table 1
reported_property: EC30

CC1CN(c2ncc(/C=C/C3CC3)cc2C(=O)NS(=O)(=O)c2cccc(N)n2)C(C)(C)C1 (stereo not drawn) [Compound 1571] :: +++ (“+++” means <3 uM)
Cc1cc(C)c(Oc2nc(OC(C)(C)C)ccc2C(=O)NS(=O)(=O)c2cccc(N)n2)c(C)c1 [Compound 1070] :: +++ (“+++” means <3 uM)
CC1CN(c2ncccc2C(=O)NS(=O)(=O)c2cccc(NCc3ccc(Cl)cc3Cl)n2)C(C)(C)C1 (stereo not drawn) [Compound 1968] :: +++ (“+++” means <3 uM)
CC(C)COc1cc(F)cc(-c2ccc(C(=O)NS(=O)(=O)c3ccccc3O)c(N3C[C@@H](C)CC3(C)C)n2)c1 [Compound 1836] :: +++ (“+++” means <3 uM)
COc1cc(C(C)(C)C)nc(Oc2c(C)cc(C)cc2C)c1C(=O)NS(=O)(=O)c1cccc(N)c1 [Compound 959] :: +++ (“+++” means <3 uM)

Asked: Dear colleague, I am looking for the recorded EC30 of the following compound: CCCCOc1ccc(-c2ccc(C(=O)NS(=O)(=O)c3ccc[nH]c3=O)c(Oc3c(C)cc(C)cc3C)n2)cc1F [Compound 1187]
Given back: +++ (“+++” means <3 uM)

Asked: Dear colleague, I am looking for the recorded EC30 of the following compound: COc1cccc(F)c1-c1ccc(C(=O)NS(=O)(=O)c2cccc(N)n2)c(Oc2c(C)cc(C)cc2C)n1 [Compound 920]
Given back: +++ (“+++” means <3 uM)

Asked: Dear colleague, I am looking for the recorded EC30 of the following compound: CC(C)COc1cc(F)cc(-c2ccc(C(=O)NS(=O)(=O)c3cccc(N)n3)c(OC3CC(OCc4ccccc4)C3)n2)c1 (stereo not drawn) [Compound 1559]
Given back: +++ (“+++” means <3 uM)

Asked: Dear colleague, I am looking for the recorded EC30 of the following compound: Cc1cc(C)c(Oc2nc(C(C)(C)C)ccc2C(=O)NS(=O)(=O)c2nccnc2N)c(C)c1 [Compound 1208]
Given back: +++ (“+++” means <3 uM)

----------
tested_on: F508del (Homo sapiens, UniProt P13569, DEL508-508)
Construct: expressed in transfected cells
experiment_description: Protocol 1: membrane potential optical assay (FLIPR III, voltage sensing dye), identification of potentiator compounds
Format: cell-based
settings: Table 3, compounds of Table 1
reported_property: EC30

Here's what some known entries look like.
CC(C)COc1cc(F)cc(-c2ccc(C(=O)NS(=O)(=O)c3ccn[nH]3)c(N3CCCC(C(F)(F)F)C3)n2)c1 (centres unmarked) :: +++ (“+++” means <3 uM)
COc1cc(F)ccc1-c1ccc(C(=O)NS(=O)(=O)c2cccc(N)n2)c(Oc2c(C)cc(C)cc2C)n1 :: +++ (“+++” means <3 uM)
CCCOc1ccc(-c2ccc(C(=O)NS(=O)(=O)c3ccc[nH]c3=O)c(Oc3c(C)cc(C)cc3C)n2)cc1 :: +++ (“+++” means <3 uM)
Cc1ccc(-c2ccc(C(=O)NS(=O)(=O)c3cccc(N)n3)c(Oc3c(C)cc(C)cc3C)n2)nc1 :: +++ (“+++” means <3 uM)
COc1cccc(-c2cnc(N3CC(C)CC3(C)C)c(C(=O)NS(=O)(=O)c3cccc(N)n3)c2)n1 (centres unmarked) :: +++ (“+++” means <3 uM)
Cc1ccc(-c2ccc(C(=O)NS(=O)(=O)c3ccc[nH]c3=O)c(N3C[C@@H](C)CC3(C)C)n2)c2ccccc12 :: +++ (“+++” means <3 uM)
Cc1cc(C)c(Oc2nc(C3CCCCCC3)ccc2C(=O)NS(=O)(=O)c2cccc(N)n2)c(C)c1 :: +++ (“+++” means <3 uM)
Cc1cccc(C)c1Cn1nc(C(C)(C)C)cc1C(=O)NS(=O)(=O)c1ccco1 :: +++ (“+++” means <3 uM)

Asked: Dear colleague, I am looking for the recorded EC30 of the following compound: CC(C)COc1cc(F)cc(-c2ccc(C(=O)NS(=O)(=O)c3cccc(N)n3)c(N3CCC3C)n2)c1 (centres unmarked)
Given back: +++ (“+++” means <3 uM)

Asked: Dear colleague, I am looking for the recorded EC30 of the following compound: "COc1ncc(-c2ccc(C(=O)NS(=O)(=O)c3cccc(N)n3)c(Oc3c(C)cc(C)cc3C)n2)cc1Cl"
Given back: +++ (“+++” means <3 uM)

Asked: Dear colleague, I am looking for the recorded EC30 of the following compound: "CC(=O)Nc1cccc(S(=O)(=O)NC(=O)c2ccc(-c3cc(F)cc(OCC(C)C)c3)nc2N2C[C@@H](C)CC2(C)C)n1"
Given back: +++ (“+++” means <3 uM)
